system: ATP; assay: switch fluorescence ratio, 500 uM ATP over buffer (Cy3 cluster intensity, sum of 5 cycles each) (fold (ratio)); higher = stronger signal-on switching upon ATP binding; sequences stand for … in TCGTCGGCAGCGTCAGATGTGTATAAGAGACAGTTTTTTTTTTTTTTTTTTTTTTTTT…TC; details: aptamer strand: ATP DNA aptamer (quencher-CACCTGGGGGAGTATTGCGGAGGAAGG + anchor), 100 nM annealed; ATP concentration: 500 uM;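 further: ATP exposure 15 min at 22 °C before imaging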
switch fluorescence ratio values by entry
Answer as a number with no unit attached.

Example sequences with recorded switch fluorescence ratio:
TTCAGAAATT = 1.01
ATCTTTGTTG = 0.987
TGGGTGATGT = 0.996
TGAAGATGTG = 0.993
TTTTTCGTGG = 1.01

Query: Which switch fluorescence ratio is listed for `TCGAGCAGCT` ?
Result: 1.1

Query: Which switch fluorescence ratio is listed for `CAGGAGGGGA` ?
Result: 1.01

Query: Which switch fluorescence ratio is listed for `CATTAGAGGT` ?
Result: 0.995

Query: Which switch fluorescence ratio is listed for `AGGGAGTCTT` ?
Result: 0.971

Query: Which switch fluorescence ratio is listed for `TAGGGCATCG` ?
Result: 1.01

###

test system: ATP; assay: switch fluorescence ratio, 500 uM ATP over buffer (Cy3 cluster intensity, sum of 5 cycles each) (fold (ratio)); higher = stronger signal-on switching upon ATP binding; sequences stand for … in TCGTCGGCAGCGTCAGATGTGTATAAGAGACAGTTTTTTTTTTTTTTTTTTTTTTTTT…TC; details: aptamer strand: ATP DNA aptamer (quencher-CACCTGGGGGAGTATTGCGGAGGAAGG + anchor), 100 nM annealed; ATP concentration: 500 uM;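 further: ATP exposure 15 min at 22 °C before imaging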
switch fluorescence ratio values by entry
Answer as a number with no unit attached.

Example sequences with recorded switch fluorescence ratio:
AGGTGTAGTG = 0.987
TTTTGTTGCT = 0.956

Switching to the query record.
Query: Which switch fluorescence ratio is listed for `CAAAAGGCAG` ?
Result: 0.984

###

switch fluorescence ratio values by entry
tested on: ATP; test: switch fluorescence ratio, 500 uM ATP over buffer (Cy3 cluster intensity, sum of 5 cycles each) (fold (ratio)); higher = stronger signal-on switching upon ATP binding; sequences stand for … in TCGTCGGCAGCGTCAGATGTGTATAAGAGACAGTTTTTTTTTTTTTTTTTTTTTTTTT…TC; conditions: aptamer strand: ATP DNA aptamer (quencher-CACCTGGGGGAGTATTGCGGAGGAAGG + anchor), 100 nM annealed; ATP concentration: 500 uM;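 further: ATP exposure 15 min at 22 °C before imaging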
Answer as a number with no unit attached.

TGACGGGTTT = 1.06

Query: Which switch fluorescence ratio is listed for `TATGACATGG` ?
Result: 0.959

Query: Which switch fluorescence ratio is listed for `GAAACCGGAG` ?
Result: 1.57

Query: Which switch fluorescence ratio is listed for `AGTGACTTTT` ?
Result: 0.996

Query: Which switch fluorescence ratio is listed for `TTTGAGCATT` ?
Result: 1.04

Query: Which switch fluorescence ratio is listed for `TGTTAAGATA` ?
Result: 1.02

Query: Which switch fluorescence ratio is listed for `TATTGCCTGT` ?
Result: 0.974

Query: Which switch fluorescence ratio is listed for `TATTGGCTTT` ?
Result: 0.989

Query: Which switch fluorescence ratio is listed for `CCGCGGCGAA` ?
Result: 1.47

Query: Which switch fluorescence ratio is listed for `CAACTATTTT` ?
Result: 1

Query: Which switch fluorescence ratio is listed for `ATGCACGGAA` ?
Result: 1.05

Query: Which switch fluorescence ratio is listed for `TGCATTGGGC` ?
Result: 1.03

Query: Which switch fluorescence ratio is listed for `GGGGGGCTCG` ?
Result: 0.973

Query: Which switch fluorescence ratio is listed for `TGTCGCGTAG` ?
Result: 0.993

###

switch fluorescence ratio values by entry
test system: ATP; assay: switch fluorescence ratio, 500 uM ATP over buffer (Cy3 cluster intensity, sum of 5 cycles each) (fold (ratio)); higher = stronger signal-on switching upon ATP binding; sequences stand for … in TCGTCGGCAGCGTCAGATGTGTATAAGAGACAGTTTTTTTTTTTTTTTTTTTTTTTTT…TC; settings: aptamer strand: ATP DNA aptamer (quencher-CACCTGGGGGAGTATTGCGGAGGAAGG + anchor), 100 nM annealed; ATP concentration: 500 uM;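 further: ATP exposure 15 min at 22 °C before imaging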
Answer as a number with no unit attached.

Example sequences with recorded switch fluorescence ratio:
TAGGACCAGC = 0.98
TCATCACCGT = 1.01
AATTGAAGGG = 0.996

Query: Which switch fluorescence ratio is listed for `GTGGGTGGTC` ?
Result: 1.02

Query: Which switch fluorescence ratio is listed for `CCTGGATTTA` ?
Result: 1.01

###

switch fluorescence ratio values by entry
test system: ATP; assay: switch fluorescence ratio, 500 uM ATP over buffer (Cy3 cluster intensity, sum of 5 cycles each) (fold (ratio)); higher = stronger signal-on switching upon ATP binding; sequences stand for … in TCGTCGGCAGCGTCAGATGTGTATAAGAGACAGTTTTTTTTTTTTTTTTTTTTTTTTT…TC; conditions: aptamer strand: ATP DNA aptamer (quencher-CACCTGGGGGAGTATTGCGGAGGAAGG + anchor), 100 nM annealed; ATP concentration: 500 uM;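 further: ATP exposure 15 min at 22 °C before imaging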
Answer as a number with no unit attached.

TCTCAGTAGG = 1.02
ACTTAGGAGA = 1.01
GAAAAGAGTC = 1.07
AGCACGGGTT = 1.21
GGCCCTTCGG = 0.999
AGAGTGGTAG = 0.99
GTGTAGAGTT = 1.02
TTACATGTAA = 0.996
GGGGTTGGG = 1.01
AGAAAAAGGA = 1.01

Switching to the query record.
Query: Which switch fluorescence ratio is listed for `GTGTAAGGGT` ?
Result: 0.981

###

test system: ATP; experiment: switch fluorescence ratio, 500 uM ATP over buffer (Cy3 cluster intensity, sum of 5 cycles each) (fold (ratio)); higher = stronger signal-on switching upon ATP binding; sequences stand for … in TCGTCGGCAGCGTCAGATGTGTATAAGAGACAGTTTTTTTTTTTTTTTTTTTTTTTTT…TC; details: aptamer strand: ATP DNA aptamer (quencher-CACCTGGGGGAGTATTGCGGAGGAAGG + anchor), 100 nM annealed; ATP concentration: 500 uM;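 further: ATP exposure 15 min at 22 °C before imaging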
PROPERTY NAME: switch fluorescence ratio
Answer as a number with no unit attached.

GGGGACCTAG = 1.01
GATTAAAGGG = 1
CAAAGATAAT = 1.01
TAAGAGCCGT = 1.02

Query: Which switch fluorescence ratio is listed for `AGAGGTTACG` ?
Result: 0.994

Query: Which switch fluorescence ratio is listed for `CTGTTGACTG` ?
Result: 0.983

Query: Which switch fluorescence ratio is listed for `AGTGCTGCGA` ?
Result: 1.02

Query: Which switch fluorescence ratio is listed for `GGGGTGATGT` ?
Result: 0.98

Query: Which switch fluorescence ratio is listed for `CAAGGGAATG` ?
Result: 1

Query: Which switch fluorescence ratio is listed for `ACGGGGCATT` ?
Result: 1

Query: Which switch fluorescence ratio is listed for `CAGAGATGGG` ?
Result: 1

Query: Which switch fluorescence ratio is listed for `GAGCTGACTT` ?
Result: 1.02

Query: Which switch fluorescence ratio is listed for `GGTTCACGGG` ?
Result: 0.983

Query: Which switch fluorescence ratio is listed for `CTTAACAGAA` ?
Result: 0.991

###

tested on: ATP; assay: switch fluorescence ratio, 500 uM ATP over buffer (Cy3 cluster intensity, sum of 5 cycles each) (fold (ratio)); higher = stronger signal-on switching upon ATP binding; sequences stand for … in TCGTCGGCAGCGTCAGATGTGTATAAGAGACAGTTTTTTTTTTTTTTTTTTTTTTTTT…TC; conditions: aptamer strand: ATP DNA aptamer (quencher-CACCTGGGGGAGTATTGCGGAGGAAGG + anchor), 100 nM annealed; ATP concentration: 500 uM;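 further: ATP exposure 15 min at 22 °C before imaging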
PROPERTY NAME: switch fluorescence ratio
Answer as a number with no unit attached.

AGCAAATATA = 1.06
TAGGATGGGG = 1

Query: // map `CGCCCGTAGG` to recorded switch fluorescence ratio (system: ATP);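 further: ATP exposure 15 min at 22 °C before imaging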
Result: 1.05

Query: // map `GTTGATGGGA` to recorded switch fluorescence ratio (system: ATP);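 further: ATP exposure 15 min at 22 °C before imaging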
Result: 0.982

Query: // map `TCGTTAATGG` to recorded switch fluorescence ratio (system: ATP);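 further: ATP exposure 15 min at 22 °C before imaging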
Result: 1

Query: // map `GGTCATGGCG` to recorded switch fluorescence ratio (system: ATP);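 further: ATP exposure 15 min at 22 °C before imaging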
Result: 1.02

Query: // map `TAGCTGATGT` to recorded switch fluorescence ratio (system: ATP);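 further: ATP exposure 15 min at 22 °C before imaging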
Result: 1.03

Query: // map `AAATGTTCCG` to recorded switch fluorescence ratio (system: ATP);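 further: ATP exposure 15 min at 22 °C before imaging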
Result: 1.03

Query: // map `AACATTAAGC` to recorded switch fluorescence ratio (system: ATP);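 further: ATP exposure 15 min at 22 °C before imaging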
Result: 1.04

Query: // map `AGGCAGTGTC` to recorded switch fluorescence ratio (system: ATP);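 further: ATP exposure 15 min at 22 °C before imaging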
Result: 1.04

Query: // map `TGATAGGGAG` to recorded switch fluorescence ratio (system: ATP);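 further: ATP exposure 15 min at 22 °C before imaging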
Result: 0.982

Query: // map `TACTATTGGA` to recorded switch fluorescence ratio (system: ATP);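 further: ATP exposure 15 min at 22 °C before imaging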
Result: 1.01

Query: // map `AAAGTGTTTT` to recorded switch fluorescence ratio (system: ATP);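 further: ATP exposure 15 min at 22 °C before imaging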
Result: 0.995

Query: // map `TTAATTTTAG` to recorded switch fluorescence ratio (system: ATP);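 further: ATP exposure 15 min at 22 °C before imaging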
Result: 0.976

Query: // map `ATCGGAGGGC` to recorded switch fluorescence ratio (system: ATP);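 further: ATP exposure 15 min at 22 °C before imaging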
Result: 1.02

Query: // map `AGAGACGGGG` to recorded switch fluorescence ratio (system: ATP);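 further: ATP exposure 15 min at 22 °C before imaging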
Result: 1.02

Query: // map `CGCTATTTTA` to recorded switch fluorescence ratio (system: ATP);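 further: ATP exposure 15 min at 22 °C before imaging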
Result: 1.04

Query: // map `TCATCGGGG` to recorded switch fluorescence ratio (system: ATP);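 further: ATP exposure 15 min at 22 °C before imaging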
Result: 0.947

Query: // map `CGGGTGACTC` to recorded switch fluorescence ratio (system: ATP);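 further: ATP exposure 15 min at 22 °C before imaging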
Result: 1.02

Query: // map `AACTGTGTG` to recorded switch fluorescence ratio (system: ATP);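 further: ATP exposure 15 min at 22 °C before imaging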
Result: 0.987
